# experimental.details: A qHTS for Small Molecule Inhibitors of Shiga Toxin; also: 0% is about no effect
# recorded.conditions: Vero cells, Shiga toxin protein synthesis inhibition reporter; at 38.7 µM, stronger effect = higher value
Screen size: about 290,000 compounds; about 27,000 (9.3%) were called active. Only a selection was taken, and actives are over-represented in it overall.
observation.type: inhibition (%)
Answers are plain numbers, in %.

The cases that follow already have their inhibition on record.
>>> numeric_readout("Cc1sc2ncn(CC(=O)NCCCC(=O)N(C)Cc3ccccc3)c(=O)c2c1C")
-9.55
>>> numeric_readout("Cc1cccc(NC(=O)c2cc([N+](=O)[O-])ccc2N2CCN(C)CC2)c1")
1.74
>>> numeric_readout("Cc1ccc(C(=O)Nc2nnc(-c3ccncc3)s2)o1")
-10.6
>>> numeric_readout("Cc1cccc(NC(=O)c2ccc([N+](=O)[O-])o2)c1")
55.5
>>> numeric_readout("O=C(C1CC(=O)N(c2ccc(F)cc2)C1)N1CCN(c2ccccc2)CC1 (stereo unspecified)")
-5.65
>>> numeric_readout("COc1cccc(/C=C2/SC(=S)N(CC(=O)NC3C=CS(=O)(=O)C3)C2=O)c1 (stereo unspecified)")
16.1
>>> numeric_readout("CCCNC(=O)c1cnc(-c2ccccc2)nc1-c1ccccc1")
-8.32
>>> numeric_readout("Cc1cc(-c2ccc(C)c(S(=O)(=O)Nc3ccc(S(N)(=O)=O)cc3)c2)on1")
29.3
>>> numeric_readout("Cc1onc(C(=O)NCc2ccc(F)cc2)c1[N+](=O)[O-]")
15.4
>>> numeric_readout("Brc1c(CSc2nncc3ccccc23)nc2ccccn12")
44.5

Read the next record carefully.
Value lookup for inhibition; key = Cc1cccc(N2CCN(C(=O)CCS(=O)(=O)c3ccc4c(c3)NC(=O)C(C)S4)CC2)c1C (stereo unspecified)
-11.3
